# YAP1 (% UTC) values compiled below
tested on: Yap1 mRNA; experiment: Antisense inhibition of human Yap1 in A-431 cells by cEt gapmers, single dose (Example 3, RTS36584); type: cell-based; settings: Table 11; A-431 cells, 5,000 cells per well, free uptake, 2,000 nM oligonucleotide, approx. 48 hours; primer probe set RTS36584; Yap1 mRNA normalized to RIBOGREEN, percent of untreated control
Strand notation (5' to 3'): a small letter for the sugar, then the base; units joined by * are phosphorothioate-linked, units joined directly phosphodiester-linked; [ ] holds rarer units or linkages, { } end groups; capitals alone tell only the bases. k = constrained ethyl (cEt); [5mC] = 5-methylcytosine; d = 2'-deoxy (DNA)
Parameter measured: YAP1 (% UTC)

>>> df
                                   substance  readout_value
 0  958698 (antisense k[5mC]*kT*kT*dA*dT*dT*dA*dG*d[5mC]*d[5mC]*d[5mC]*dT*d[5mC]*kA*kA*kA) [Compound 958698]       30 % UTC
 1  958783 (antisense kT*kG*kA*dT*d[5mC]*dT*dG*dA*dT*dG*d[5mC]*dT*dT*kG*k[5mC]*kT) [Compound 958783]       35 % UTC
 2  958798 (antisense kT*kG*k[5mC]*dA*dG*dT*dA*dT*dA*dA*dT*dA*dT*k[5mC]*k[5mC]*kT) [Compound 958798]        3 % UTC
 3  958493 (kA*kA*kA*d[5mC]*dA*dG*dT*d[5mC]*dT*dT*d[5mC]*dA*dG*k[5mC]*k[5mC]*kT; antisense) [Compound 958493]       16 % UTC
 4  958548 (kG*kA*k[5mC]*dA*d[5mC]*dA*dT*dA*d[5mC]*dT*d[5mC]*dT*dA*kG*kT*kT; antisense) [Compound 958548]       21 % UTC
 5  958448 (antisense kG*k[5mC]*kG*dA*dA*dG*dG*d[5mC]*dG*dG*d[5mC]*dT*dG*k[5mC]*k[5mC]*k[5mC]) [Compound 958448]       86 % UTC
 6  958803 (antisense kG*kA*kT*dA*dA*dT*d[5mC]*dA*dT*d[5mC]*d[5mC]*dT*d[5mC]*kA*kG*k[5mC]) [Compound 958803]       24 % UTC
 7  958468 (antisense kT*kT*kG*dG*dT*dG*dG*d[5mC]*dA*dG*d[5mC]*d[5mC]*dA*kA*kA*kA) [Compound 958468]       86 % UTC
 8  958633 (antisense kT*kG*kT*d[5mC]*dA*dT*d[5mC]*dA*dG*dG*dT*dT*dA*kA*kG*kT) [Compound 958633]       76 % UTC
 9  958478 (antisense kG*kG*kA*dA*dA*dT*dT*dT*d[5mC]*d[5mC]*dG*dG*dT*kG*k[5mC]*kA) [Compound 958478]       14 % UTC
10  958598 (k[5mC]*k[5mC]*k[5mC]*dA*dA*dT*dG*d[5mC]*dT*dA*d[5mC]*d[5mC]*d[5mC]*kA*kA*kT; antisense) [Compound 958598]        4 % UTC
11  958518 (k[5mC]*k[5mC]*kA*d[5mC]*dA*dG*dT*dA*dA*dT*dA*dG*d[5mC]*kT*k[5mC]*kT; antisense) [Compound 958518]        1 % UTC
